# IC50 against Endothelial lipase (Homo sapiens), merged from multiple literature sources
Answers are plain numbers, in nM.

                                smiles_repr  recorded_measurement
0  COC(=O)[C@H](COC(C)(C)C)Nc1nnc(C(=O)c2nc3ccc(-c4ccc(F)cc4)cc3s2)o1                   140
1  CN1CC(C(=O)NCc2ccc(Oc3ccc(F)cc3)cc2)=C(O)C1=O                  49.5

Shifting focus to the molecule that follows.
### Prompt Which IC50 value is on record for N#CCNC(=O)Cc1nnc(C(F)(F)c2nc3ccc(-c4ccccc4)cc3s2)o1 ?
### Response 250

====

# log10 IC50 against Endothelial lipase (Homo sapiens), merged from multiple literature sources
Values reflect log10 of reported IC50 (nM).

Use these answered entries as a reference point.
>>> print(df.to_string())
                                   compound                 measurement_target  recorded_measurement
0  O=C(Cc1nc2ccc(-c3ccccc3)cc2s1)NCc1nc(C(=O)O)cs1  Endothelial lipase (Homo sapiens)                  2.45
1  NC(=O)CNc1nnc(C(=O)c2nc3ccc(-c4ccccc4)cc3s2)o1  Endothelial lipase (Homo sapiens)                  2.02
2  COc1ccc(CCNc2nnc(C(=O)c3nc4ccc(-c5ccc(F)cc5)cc4s3)o2)cc1  Endothelial lipase (Homo sapiens)                  2.38
3  CC(C)OCCN1CC(C(=O)NCCCc2ccc(Cl)c(Cl)c2)=C(O)C1=O  Endothelial lipase (Homo sapiens)                  0.20
4  O=C(c1nnc(CC2NC(=O)N(c3ccccc3)C2=O)o1)c1nc2ccc(-c3ccccc3)cc2s1 (stereo not drawn)  Endothelial lipase (Homo sapiens)                  1.20
5    N#CCNC(=O)Cc1nnc(Cc2nc3c(Br)cccc3s2)o1  Endothelial lipase (Homo sapiens)                  1.56

State the recorded log10 IC50 for every item in the following list.
1. CCOCCN1CC(C(=O)NCCCc2ccc(Cl)c(Cl)c2)=C(O)C1=O
2. O=C(NCCCc1ccc(Cl)c(Cl)c1)C1=C(O)C(=O)N(C2CCC2)C1
3. Cn1ccc(C(=O)NCc2cccc(-c3ccccc3)c2)c(O)c1=O

### Response
[0.80, 0.71, 1.25]

====

# pIC50 against Endothelial lipase (Homo sapiens, UniProt Q9Y5X9), merged from multiple literature sources
One number for each entry, as −log10 of the molar value.

Use these answered entries as a reference point.
In [3]: df
Out[3]:
                                   molecule                        measurement_target  test_readout  recorded_measurement
0  O=C(c1nnc(CCc2ncc[nH]2)o1)c1nc2ccc(-c3ccccc3)cc2s1  Endothelial lipase (Homo sapiens, UniProt Q9Y5X9)         pIC50                  7.96
1  O=C(N[C@H]1CC[C@@H](c2ccccc2)CC1)c1ccn(CCC(F)(F)F)c(=O)c1O  Endothelial lipase (Homo sapiens, UniProt Q9Y5X9)         pIC50                  6.45

State the recorded pIC50 for every item in the following list.
1. CC(C)(C)CN1CC(c2nnc(C(=O)c3nc4ccc(-c5ccccc5)cc4s3)o2)C1
2. C[C@@H](NC(=O)C1=C(O)C(=O)N(C)C1)c1cccc(-c2cccc(F)c2)c1
3. CC(O)CNC(=O)CNC(=O)Cc1nc2ccc(-c3ccccc3)cc2s1 (centres unmarked)
4. O=C(c1nnc(NCCc2ccncc2)o1)c1nc2ccc(-c3ccccc3)cc2s1

### Response
1: 7.70; 2: 6.61; 3: 7.04; 4: 6.74
